# Test system: human CETP mRNA
# protocol-details: Antisense inhibition of human CETP mRNA in primary hepatocytes from huCETP transgenic mice (Example 4)
# Format: cell-based, mouse
# particulars: 200 nM, cytofectin, ~24 hours
Strand notation (5' to 3'): a small letter for the sugar, then the base; units joined by * are phosphorothioate-linked, units joined directly phosphodiester-linked; [ ] holds rarer units or linkages, { } end groups; capitals alone tell only the bases. e = 2'-O-(2-methoxyethyl) (MOE); [5mC] = 5-methylcytosine; d = 2'-deoxy (DNA)
Categories are assigned from the measured Percent inhibition of human CETP mRNA using these intervals: LOW: < 60%; MEDIUM: ≥ 60% and < 80%; HIGH: ≥ 80%

substance	label-class
ISIS 349507: 5-10-5 MOE gapmer TGATGATGTCGAAGAGGCTC (eT*eG*eA*eT*eG*dA*dT*dG*dT*d[5mC]*dG*dA*dA*dG*dA*eG*eG*e[5mC]*eT*e[5mC])	MEDIUM
ISIS 349511: 5-10-5 MOE gapmer CCCGACCTCCTTGGAGACTT (sugars from the 5' end e5 d10 e5, backbone and methylation of C not given here)	HIGH
ISIS 349487: 5-10-5 MOE gapmer CCCATCAGGCTGAGCATGAG (e[5mC]*e[5mC]*e[5mC]*eA*eT*d[5mC]*dA*dG*dG*d[5mC]*dT*dG*dA*dG*d[5mC]*eA*eT*eG*eA*eG)	MEDIUM

Lab note: which band did ISIS 349469: 5-10-5 MOE gapmer TCTCGAAGTCAATGGACTGA (eT*e[5mC]*eT*e[5mC]*eG*dA*dA*dG*dT*d[5mC]*dA*dA*dT*dG*dG*eA*e[5mC]*eT*eG*eA) land in?
MEDIUM

Any idea which band ISIS 349513: 5-10-5 MOE gapmer TCCAGCTGTGAGCCTGGTGC (eT*e[5mC]*e[5mC]*eA*eG*d[5mC]*dT*dG*dT*dG*dA*dG*d[5mC]*d[5mC]*dT*eG*eG*eT*eG*e[5mC]) is in?
HIGH

For ISIS 349517: 5-10-5 MOE gapmer CAGCACTTTAATGCCAGTGG (sugars from the 5' end e5 d10 e5, backbone and methylation of C not given here) , which Percent inhibition of human CETP mRNA bin applies?
HIGH

Lab note: sort ISIS 349501: 5-10-5 MOE gapmer GCTGCTCTCAGTCAAGTTGG (eG*e[5mC]*eT*eG*e[5mC]*dT*d[5mC]*dT*d[5mC]*dA*dG*dT*d[5mC]*dA*dA*eG*eT*eT*eG*eG) into the matching Percent inhibition of human CETP mRNA band.
LOW

Hey, which category is ISIS 349458: 5-10-5 MOE gapmer GGTAGCTGGCTCGCTGGAAG (eG*eG*eT*eA*eG*d[5mC]*dT*dG*dG*d[5mC]*dT*d[5mC]*dG*d[5mC]*dT*eG*eG*eA*eA*eG) in, do you know?
LOW

Into which category would you place ISIS 349493: 5-10-5 MOE gapmer TGTTTTGGCAGGAGATCTTG (eT*eG*eT*eT*eT*dT*dG*dG*d[5mC]*dA*dG*dG*dA*dG*dA*eT*e[5mC]*eT*eT*eG) ?
MEDIUM

For ISIS 349453: 5-10-5 MOE gapmer GCATTGCCCAGCAGGGCCAG (eG*e[5mC]*eA*eT*eT*dG*d[5mC]*d[5mC]*d[5mC]*dA*dG*d[5mC]*dA*dG*dG*eG*e[5mC]*e[5mC]*eA*eG) , which Percent inhibition of human CETP mRNA bin applies?
LOW

Sort ISIS 349445: 5-10-5 MOE gapmer CAGCAGGGTCTTCCTGGCCC (e[5mC]*eA*eG*e[5mC]*eA*dG*dG*dG*dT*d[5mC]*dT*dT*d[5mC]*d[5mC]*dT*eG*eG*e[5mC]*e[5mC]*e[5mC]) into one of the categories.
MEDIUM

# classify by Percent inhibition of human CETP mRNA band: ISIS 349505: 5-10-5 MOE gapmer CACTACCTCGAGCCGAGACA (e[5mC]*eA*e[5mC]*eT*eA*d[5mC]*d[5mC]*dT*d[5mC]*dG*dA*dG*d[5mC]*d[5mC]*dG*eA*eG*eA*e[5mC]*eA)
HIGH

For ISIS 349477: 5-10-5 MOE gapmer GATCTCTTTGCAGATCTGTC (eG*eA*eT*e[5mC]*eT*d[5mC]*dT*dT*dT*dG*d[5mC]*dA*dG*dA*dT*e[5mC]*eT*eG*eT*e[5mC]) , which Percent inhibition of human CETP mRNA bin applies?
LOW

Into which bin does this substance go? ISIS 349506: 5-10-5 MOE gapmer CGCCTTTGCTGTTCATGAGG (e[5mC]*eG*e[5mC]*e[5mC]*eT*dT*dT*dG*d[5mC]*dT*dG*dT*dT*d[5mC]*dA*eT*eG*eA*eG*eG)
HIGH

Hey, which category is ISIS 349500: 5-10-5 MOE gapmer ACAGTCTTTGGTGTAATCTG (eA*e[5mC]*eA*eG*eT*d[5mC]*dT*dT*dT*dG*dG*dT*dG*dT*dA*eA*eT*e[5mC]*eT*eG) in, do you know?
MEDIUM

Returns: class label. Input: ISIS 349475: 5-10-5 MOE gapmer GCTTGATCCACCCAGGCTCT (eG*e[5mC]*eT*eT*eG*dA*dT*d[5mC]*d[5mC]*dA*d[5mC]*d[5mC]*d[5mC]*dA*dG*eG*e[5mC]*eT*e[5mC]*eT)
LOW

Just checking, what class would you give ISIS 349462: 5-10-5 MOE gapmer ATCTGGATGTTGTGCAACCC (eA*eT*e[5mC]*eT*eG*dG*dA*dT*dG*dT*dT*dG*dT*dG*d[5mC]*eA*eA*e[5mC]*e[5mC]*e[5mC]) here?
MEDIUM

Input ISIS 349446: 5-10-5 MOE gapmer GGAACATGAGGCTCTTCCGG (eG*eG*eA*eA*e[5mC]*dA*dT*dG*dA*dG*dG*d[5mC]*dT*d[5mC]*dT*eT*e[5mC]*e[5mC]*eG*eG) ; output its category
LOW
